assay: antimalarial activity against Dd2 strain (AID 2302);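 note: 0% = DMSO untreated growth and 100% = chloroquine plus artemisinin killed control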; settings: P. falciparum Dd2 in RBCs, LDH growth readout, 72 h; at 2 µM; hits give high values
Measured growth inhibition of individual entries
Your answer is read as %, so omit the unit and give the number.

Recorded growth inhibition, per entry:
{"columns": ["compound", "uom", "readout value"],
 "data": [
  ["CCNc1cc(C(=O)N[C@@H](Cc2ccccc2)[C@H](O)CN[C@@H](C)c2ccccc2)cc(N2CCCC2=O)c1", "%", 96],
  ["CN1CCCC(CN2CCN(Cc3ccc(-c4ccc(-c5nc6ccc(F)cc6[nH]5)s4)cc3)CC2)C1 (stereo not drawn)", "%", 100]
]}

Quick check: growth inhibition of "COc1ccc(NC(=O)Nc2ccc(-c3ccccc3)cc2Cl)cc1N1CCN(C)CC1" ? 30

----------
target: L-lactate dehydrogenase (Plasmodium falciparum (isolate CDC / Honduras)) (UniProt Q27743); experiment: PfLDH activity inhibition – cell lysate, 3D7 strain, counter-screen for P. falciparum growth inhibition project (AID 2304);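 note: 0% = vehicle and 100% = reference inhibitor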; details: P. falciparum 3D7 crude extract, LDH APAD/NBT absorbance; at 2 µM; hits give high values
Sequence (Q27743 whole entry, looked up): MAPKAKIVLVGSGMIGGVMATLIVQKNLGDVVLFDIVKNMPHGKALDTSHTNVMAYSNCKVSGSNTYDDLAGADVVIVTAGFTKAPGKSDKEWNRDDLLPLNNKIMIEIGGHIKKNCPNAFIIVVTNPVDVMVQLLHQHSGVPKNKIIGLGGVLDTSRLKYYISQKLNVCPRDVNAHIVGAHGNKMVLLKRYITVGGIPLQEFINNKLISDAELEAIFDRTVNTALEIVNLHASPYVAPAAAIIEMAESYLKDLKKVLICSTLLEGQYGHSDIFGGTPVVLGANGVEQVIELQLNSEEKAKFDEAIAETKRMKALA
Measured inhibition of individual entries
Your answer is read as %, so omit the unit and give the number.

Recorded inhibition, per entry:
{"columns": ["compound", "uom", "inhibition"],
 "data": [
  ["CCCC(=O)Nc1ccc(OCCCN(Cc2ccccc2C(F)(F)F)c2ccc(C#N)c(C(F)(F)F)c2)cc1", "%", 2],
  ["CCCCCCn1c2c(c(=N)c3c1CCC3)CCCC2", "%", 4],
  ["COc1cccc2cc(C(=O)N[C@@H](CC(C)C)C(=O)N[C@H](/C=N/N3CCOC3=O)Cc3ccccc3)oc12", "%", -1],
  ["Cc1nn(-c2ccccc2)c2nc(-c3ccccc3)cc(C(=O)N3CCOCC3)c12", "%", 6],
  ["CC(C)N1CCC(N(Cc2ccc(-c3ccc(C(F)(F)F)cc3)cc2)C(=O)Cn2c(SCc3cccc(F)c3F)cc(=O)c3ccccc32)CC1", "%", 1]
]}

Quick check: inhibition of "O=C(/C=C/c1ccc(Cl)c(Cl)c1)NCCCCCN1CCC(NC(=O)Nc2ccc(Br)cc2)CC1" ? -3

Quick check: inhibition of "CC(C)Cc1ccc(N2CCN(CCCCNC(=O)c3ccc(NC(=O)c4ccc(Cl)c(Cl)c4)cc3)CC2)cc1" ? 0

Quick check: inhibition of "O=C(Nc1ccon1)c1cc(-c2cccnc2)nc2ccc(Cl)cc12" ? 6

Quick check: inhibition of "COc1cc2ccccc2c(CON2C(N)=NC(N)=NC2(C)C)c1OC" ? 1

Quick check: inhibition of "COc1ccc(CN(C)C(=O)CCNS(=O)(=O)c2ccc3c(c2)OCCCO3)cc1F" ? 0

Quick check: inhibition of CN(C)CCn1c(=N)n(CC(O)c2ccc(Cl)c(Cl)c2)c2ccccc21 (centres undefined) ? -2

Quick check: inhibition of "Brc1cccc(Nc2nccc(Nc3ccc(Oc4ccccc4)cc3)n2)c1" ? -4

Quick check: inhibition of "Cc1noc(C)c1-c1ccc2c(Nc3ccccc3N3CCOCC3)c(C(=O)NCc3ccccc3)cnc2c1" ? -2

----------
target: Calcium-dependent protein kinase 4 (Plasmodium falciparum (isolate 3D7)) (UniProt Q8IBS5); test: PfCDPK4 kinase inhibitors, biochemical, TCAMS library (AID 1159588); conditions: recombinant PfCDPK4, Kinase-Glo ATP depletion luminescence
Sequence (Q8IBS5 whole entry, looked up): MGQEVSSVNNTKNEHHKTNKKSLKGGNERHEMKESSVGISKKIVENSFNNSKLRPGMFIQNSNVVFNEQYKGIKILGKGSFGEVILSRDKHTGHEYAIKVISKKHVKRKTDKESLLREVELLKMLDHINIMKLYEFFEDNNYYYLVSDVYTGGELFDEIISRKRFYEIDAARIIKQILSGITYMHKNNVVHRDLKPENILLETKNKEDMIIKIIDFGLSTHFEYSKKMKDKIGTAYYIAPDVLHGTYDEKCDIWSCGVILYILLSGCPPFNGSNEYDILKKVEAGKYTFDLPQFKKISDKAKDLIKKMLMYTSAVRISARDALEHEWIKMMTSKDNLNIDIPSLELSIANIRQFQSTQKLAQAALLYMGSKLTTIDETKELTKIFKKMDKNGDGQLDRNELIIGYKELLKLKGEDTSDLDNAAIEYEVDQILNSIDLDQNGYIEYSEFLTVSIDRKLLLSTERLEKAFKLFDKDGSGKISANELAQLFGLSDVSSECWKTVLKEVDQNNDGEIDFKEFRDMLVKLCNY
Entries with a potency or affinity are not part of this list. Activity calls are given as the source filed them. Cut-off not given; nearly all actives show IC50 up to about 0.91 µM.
metric: outcome

Recorded outcome, per entry:
{"columns": ["compound", "outcome"],
 "data": [
  ["COc1cc(F)c2ncc(Cl)c([C@@H](O)CN3CCC(NCc4cc5c(cn4)OCCO5)CC3)c2c1", "inactive"],
  ["O=C(NC1CCN(CCCc2ccccc2)CC1)c1ccc(-c2cccc(C(F)(F)F)c2)s1", "inactive"],
  ["CCN(CC)S(=O)(=O)c1ccc(C=CC(=O)Nc2cc(Cl)ccc2N2CCOCC2)cc1", "inactive"],
  ["O=[N+]([O-])c1cccc(-c2nc(-c3ccc(Br)cc3)[nH]c2-c2ccc(Br)cc2)c1", "inactive"]
]}

Quick check: outcome of "COc1ccc(NC(=O)NC2CCN(c3ccnc4cc(Cl)ccc34)CC2)cc1" ? inactive

Quick check: outcome of "Cc1cccc(-c2ccc(NC(=O)Nc3ccc4nccc(N5CCN(C)CC5)c4c3)cc2C)n1" ? inactive

Quick check: outcome of "Cc1cc(-c2nc3ccc(N4CCN(C)CC4)cc3[nH]2)nn1Cc1cc(Cl)ccc1OCC(C)C" ? inactive

Quick check: outcome of "NC(N)=NC(=O)Nc1cc(Br)c(Br)c(Br)c1" ? inactive
